B1: CAMK2A (parent)
chain: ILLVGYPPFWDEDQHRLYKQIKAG

variants of: B1; assay: protein stability index of a GFP-peptide fusion (GPS, HEK-293T) (PSI 1-6); higher = more stable; conditions: c terminus: a fixed tail appended;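 note: lentivirally expressed fusions sorted by FACS into six bins by GFP to DsRed ratio, PSI derived from sequencing read proportions per bin multiplied by bin number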
Think of 2 as a floor: if protein stability index stands on it or above, it is true (1); beneath it, false (0).

Query block: Has "K22F" a recorded protein stability index greater than or equal to 2?
Result block: true (1)

Query block: Given "I1D" , state whether its protein stability index is at least 2.
Result block: true (1)

Query block: Is the recorded value of protein stability index equal to or greater than 2 for this variant? "D11S"
Result block: true (1)

Query block: Determine whether measured protein stability index meets or exceeds 2 for "Y6A"
Result block: false (0)

Query block: Please tell me: is the variant "L2M" at or over 2 in terms of protein stability index?
Result block: true (1)

Query block: Does the variant "W10T" have recorded protein stability index that is 2 or more?
Result block: true (1)

Query block: Is protein stability index for "H15S" at or above 2?
Result block: true (1)

Query block: State whether the measured protein stability index reaches 2, counting equality as reaching it, for "L17C"
Result block: false (0)

Query block: Is the recorded value of protein stability index equal to or greater than 2 for this variant? "W10M"
Result block: false (0)

Query block: State whether the measured protein stability index reaches 2, counting equality as reaching it, for "D13T"
Result block: true (1)

Query block: Please indicate if the recorded protein stability index for "F9Y" meets or exceeds 2.
Result block: false (0)

Query block: // inclusive: protein stability index at least 2? input: "W10I"
Result block: true (1)
